Test system: SF-268
Assay: NCI tumour cell line growth inhibition, 48 h
The source made the active and inactive calls. Rule as the data show it: active = GI50 up to about 1.1 µM and inactive = higher.
GI50 values by entry

As a guide, the following entries are already answered.
                                   molecule  recorded_endpoint               result
0  CC(C)=CC(=O)CC(=O)C(=O)Nc1ccc(Cl)c(Cl)c1               GI50  > 100 µM (inactive)
1  C#C[C@]1(O)CCC2C3CCc4cc(Oc5nc(F)nc(-n6c(C)nc7cc8ccccc8cc76)n5)ccc4C3CCC21C (some centres undefined)               GI50   47.6 µM (inactive)

Quick note, GI50 for CC#CC#C/C(=C/C=CC(=O)OC)SC landed at > 100 µM (inactive)

Per the records, this molecule ( Cc1nc2nnnn2c2c1C(=O)Nc1ccccc1N2 ) has GI50 equal to > 100 µM (inactive)

# GI50 of CC(C)(C)/N=C\N(C=C(c1ccccc1)c1ccccc1)C1CCCCC1 = 41.1 µM (inactive)

// COc1ccc(C(Cl)=C(c2ccc(OCCN(C)C)cc2)c2ccc(OCCN(C)C)cc2)cc1 : GI50 value = 1.84 µM (inactive)

The measured GI50 associated with CCN(CC)c1ccc(/C=C/C2=NN(c3cccc(S(=O)(=O)O)c3)C3(C2)C(Cl)C(=O)N3c2nc3ccccc3s2)cc1 (centres undefined) reads 16.8 µM (inactive)

The reported GI50 of the molecule O=C(Cc1nc2ccccc2s1)NC12CC3CC(CC(C3)C1)C2 was > 100 µM (inactive)

Looking up O=C(Sc1c(-c2ccccc2)c(=O)n(-c2ccccc2)c(=S)n1-c1ccccc1)c1cccs1 , I found its GI50 recorded as > 100 µM (inactive)

Sourced from ChEMBL document CHEMBL1201862
